Assay: NOVARTIS: Cytotoxicity against human hepatocellular carcinoma cell line (Huh7)
Format: toxicity, cell-based, Huh-7
Conditions: Huh7 cells (hepatocellular carcinoma cell line)
List of CC50 values.
QUANTITY_KIND: CC50

>>> result("CC1CCN(S(=O)(=O)c2ccc(C(=O)Nc3sc4c(c3C(N)=O)CCN(C)C4)cc2)CC1")
"> 10 µM"
>>> result("CCCCNC(=O)c1ccc(OC2CCN(CC3CCCCC3)CC2)c(Cl)c1")
"> 10 µM"
>>> result("CCC(c1nc2ccccc2c(=O)n1-c1ccccc1OC)N(CCc1ccccc1)C(=O)c1cccc(C(F)(F)F)c1 (centres undefined)")
"> 10 µM"
>>> result("CCCCCCc1ccc(C(=O)Oc2ccccc2-c2nc3cc(C)ccn3c2NC(C)(C)CC(C)(C)C)cc1")
"> 13.8 µM"
>>> result("COC(=O)C1=C(C)NC2=C(C(=O)CC(c3ccc(OC)cc3)C2)C1c1ccc(F)cc1 (centres undefined)")
"> 100 µM"
>>> result("CCCCCCC1CCC(O)(C(C)(O)C(=O)NC2C(=O)N3NCCCC3C(=O)N(O)C(COC)C(=O)NCC(=O)N3NCCCC3C(=O)N(O)C(C)C(=O)OC2C)OC1C (centres undefined)")
"0.197 µM"
>>> result("O=[N+]([O-])c1ccc(C=NNc2nc(Nc3ccccc3)nc(Nc3ccccc3)n2)o1")
"20.7 µM"
>>> result("COc1ccc(N)cc1NC(=O)c1ccc(Cl)cc1Cl")
"6.99 µM"
>>> result("COc1cc2nc(Nc3cccc(F)c3)nc(N)c2cc1OC")
"20.1 µM"
>>> result("CN(C)c1nnc(/C(C#N)=C/c2cc(C(=O)c3cccc(Cl)c3)cn2C)o1")
"> 10 µM"
>>> result("CCc1ccc(-n2nnc(C(=O)Nc3ccccc3Cl)c2C)cc1")
"> 10 µM"
>>> result("COc1ccc(NC(=O)C2c3ccccc3C(=O)N(C3CCCC3)C2c2cccs2)cc1Cl (centres undefined)")
"> 100 µM"
>>> result("CCN1C(=O)c2ccccc2Sc2ccc(NC(=O)NCCCOC(C)C)cc21")
"32.1 µM"
>>> result("c1ccc2c(c1)ccc[n+]2CCCCCC[n+]1cccc2ccccc21")
"> 10 µM"
>>> result("O=C(c1cccc(Cl)c1)N1CCN(c2ccc([N+](=O)[O-])c(NC3CC3)c2)CC1")
"> 100 µM"
>>> result("CC(C)C(=O)N(C)CCCNc1ccnc2cc(Cl)ccc12")
"> 10 µM"
>>> result("COc1ccc(C2CC(=O)C3=C(C2)NC(C)=C(C(=O)OC(C)C)C3c2ccc([N+](=O)[O-])cc2)cc1OC (centres undefined)")
"> 100 µM"
>>> result("C=CCc1cc([N+](=O)[O-])cc2c1OC1(C=C2)N(c2ccccc2)c2ccccc2C1(C)C (centres undefined)")
"> 10 µM"
>>> result("O=C(CCl)Nc1ccc(OC(F)F)cc1")
"18.1 µM"
